Hey, just so you know, these numbers are from patent US20220402862A1.

# test_details: Dynamic light scattering of LNPs: Z-average diameter, number average diameter, PDI
# Assay type: physicochemical
# condition: LNP, sg:mRNA 1:1, N/P about 6, 50/9/38/3; Table 2, Experiments 2-20
endpoint: Number mean (nm)
Express the result in nm but write the number alone.

Please review the entries below; each comes with its answer.
CCCCC/C=C\C/C=C\CCCCCCCC(=O)OCC(COC(=O)CCCN(C)C)COC(=O)CCC(OCCCCCCCC)OCCCCCCCC (centres unmarked) [Compound 26]: 73
CCCCCCCCOC(CCC(=O)OCC(COC(=O)CCCCCCCC(=O)OCCCCCC)COC(=O)OCCCN(CC)CC)OCCCCCCCC (centres unmarked) [Compound 57]: 83.41
CCCCC/C=C\C/C=C\CCCCCCCC(=O)OCC(COC(=O)CCC(OCCCCCCCC)OCCCCCCCC)COC(=O)OC1CCN(CC)CC1 (centres unmarked) [Compound 17]: 56.58
CCCCCCCCCC(C)OC(=O)CCCCCCCC(=O)OCC(COC(=O)CCC(OCCCCCCCC)OCCCCCCCC)COC(=O)OCCCN(CC)CC (centres unmarked) [Compound 94]: 78.22

Request: For CCCCCC/C=C\COC(=O)CCCCCCCC(=O)OCC(COC(=O)CCCC(=O)OC(CCCCCCCC)CCCCCCCC)COC(=O)OCCCN(CC)CC (centres unmarked) [Compound 86] , write its Number mean (nm).
Response: 81.23

Request: For CCCCC/C=C\C/C=C\CCCCCCCC(=O)OCC(COC(=O)CCC(OCCCCCCCC)OCCCCCCCC)COC(=O)NCCCN1CCCC1 (centres unmarked) [Compound 8] , write its Number mean (nm).
Response: 37.17

Request: For CCCCCCCCCCOC(=O)CCCCCCCCCCCC(=O)OCC(COC(=O)CCC(OCCCCCCCC)OCCCCCCCC)COC(=O)OCCCN(CC)CC (centres unmarked) [Compound 91] , write its Number mean (nm).
Response: 75.67

Request: For CCCCC/C=C\C/C=C\CCCCCCCC(=O)OCC(COC(=O)CCC(OCCCCCCCC)OCCCCCCCC)COC(=O)NC1CCCN(C)C1 (centres unmarked) [Compound 42] , write its Number mean (nm).
Response: 58.66

Request: For CCCCCCCCOC(CCC(=O)OCC(COC(=O)CCCCCCCCCCC(=O)OCCCCCCC)COC(=O)OCCCN(CC)CC)OCCCCCCCC (centres unmarked) [Compound 61] , write its Number mean (nm).
Response: 72

Request: For CCCCC/C=C\C/C=C\CCCCCCCC(=O)OCC(COC(=O)CCCCN(C)C)COC(=O)CCC(OCCCCCCCC)OCCCCCCCC (centres unmarked) [Compound 25] , write its Number mean (nm).
Response: 61

Request: For CCCCC/C=C\C/C=C\CCCCCCCC(=O)OCC(COC(=O)CCC(OCCCCCCCC)OCCCCCCCC)COC(=O)OCCN(CC)CC (centres unmarked) [Compound 9] , write its Number mean (nm).
Response: 45.11

* * *

# test_details: RNA encapsulation efficiency of LNPs (Ribogreen fluorescence assay)
# Format: physicochemical
# condition: LNP, sg:mRNA 1:1, N/P about 6, amine lipid/DSPC/cholesterol/PEG-2k-DMG 50/9/38/3; Table 2, Experiments 2-20
endpoint: Encapsulation (%)
Express the result in % but write the number alone.

CCCCCCCCCCOC(=O)CCCCCCCC(=O)OCC(COC(=O)CCC(OCCCCCCCC)OCCCCCCCC)COC(=O)OCC1CCCN(CC)C1 (stereo not drawn) [Compound 72]: 99
CCCCC/C=C\C/C=C\CCCCCCCC(=O)OCC(COC(=O)CCC(OCCCCCCCC)OCCCCCCCC)OC(=O)OCCCN(CC)CC (stereo not drawn) [Compound 97]: 98
CCCCCCCCOC(CCC(=O)OCC(COC(=O)CCCCCCCCCCC(=O)OCCCCCCC)COC(=O)OCCCN(CC)CC)OCCCCCCCC (stereo not drawn) [Compound 61]: 97

Request: For CCCCC/C=C\C/C=C\CCCCCCCC(=O)OCC(COC(=O)CCC(OCCCCCCCC)OCCCCCCCC)COC(=O)C1(C)CCN(C)CC1 (stereo not drawn) [Compound 32] , write its Encapsulation (%).
Response: 99

Request: For CCCCC/C=C\C/C=C\CCCCCCCC(=O)OCC(COC(=O)CCCCCC(=O)OC(CCCCCCCC)CCCCCCCC)COC(=O)OCCCN(CC)CC (stereo not drawn) [Compound 64] , write its Encapsulation (%).
Response: 98

Request: For CCCCCC/C=C\COC(=O)CCCCCCCCCCCC(=O)OCC(COC(=O)CCC(OCCCCCCCC)OCCCCCCCC)COC(=O)OCCCN(CC)CC (stereo not drawn) [Compound 70] , write its Encapsulation (%).
Response: 98
